measured_on: Taste receptor type 2 member 14 (Homo sapiens)
Sequence (Q9NYV8 whole entry): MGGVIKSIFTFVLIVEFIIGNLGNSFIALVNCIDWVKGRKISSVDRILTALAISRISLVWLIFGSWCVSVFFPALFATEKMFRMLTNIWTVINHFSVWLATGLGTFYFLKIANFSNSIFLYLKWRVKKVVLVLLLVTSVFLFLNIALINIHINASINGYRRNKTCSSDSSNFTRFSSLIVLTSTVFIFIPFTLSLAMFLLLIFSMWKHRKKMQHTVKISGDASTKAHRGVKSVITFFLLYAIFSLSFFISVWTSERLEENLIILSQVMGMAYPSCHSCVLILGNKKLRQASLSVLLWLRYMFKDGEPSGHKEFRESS
method: Agonist activity at human TAS2R14 transfected in HEK293T cells assessed as IP1 accumulation measured after 150 mins by IP1 accumulation assay
Assay type: cell-based
property: log10(EC50) (log10 of the value in nM)

[[record]]
smiles_data = "Cc1ccc(C(F)(F)F)cc1Nc1ccccc1C(=O)O"
value_reported = 2.59

[[record]]
smiles_data = "FC(F)(F)c1cc(I)nc(Nc2ccccc2-c2nnn[nH]2)n1"
value_reported = 2.88

[[record]]
smiles_data = "FC(F)(F)c1ccnc(Nc2ccccc2-c2nnn[nH]2)n1"
value_reported = 2.20

[[record]]
smiles_data = "O=C(O)c1ccccc1Nc1ccc(Br)c(C(F)(F)F)c1"
value_reported = 2.48

[[record]]
smiles_data = "Cc1cc(C(F)(F)F)nc(Nc2ccccc2-c2nnn[nH]2)n1"
value_reported = 1.86

[[record]]
smiles_data = "N#Cc1ccc(C(F)(F)F)cc1Nc1ccccc1C(=O)O"
value_reported = 2.62

[[record]]
smiles_data = "O=C(O)c1ccccc1Nc1nccc(C(F)(F)F)n1"
value_reported = 3.20

[[record]]
smiles_data = "N#Cc1cc(C(F)(F)F)nc(Nc2ccccc2-c2nnn[nH]2)n1"
value_reported = 2.48

[[record]]
smiles_data = "Cc1ccc(Nc2ccccc2C(=O)O)cc1C(F)(F)F"
value_reported = 2.52

[[record]]
smiles_data = "Oc1cc(C(F)(F)F)nc(Nc2ccccc2-c2nnn[nH]2)n1"
value_reported = 3.83

[[record]]
smiles_data = "O=C(O)c1ccccc1Nc1cccc(C(F)(F)F)c1Br"
value_reported = 3.32

[[record]]
smiles_data = "C#Cc1cc(C(F)(F)F)nc(Nc2ccccc2-c2nnn[nH]2)n1"
value_reported = 3.15

[[record]]
smiles_data = "O=C(O)c1ccccc1Nc1cccc(OC(F)F)c1"
value_reported = 2.97

[[record]]
smiles_data = "FC(F)(F)c1cccc(Nc2ccccc2-c2nnn[nH]2)n1"
value_reported = 1.99

[[record]]
smiles_data = "O=C(O)c1ccccc1Nc1cccc(Cl)c1"
value_reported = 2.98

[[record]]
smiles_data = "Cc1cc(Nc2ccccc2C(=O)O)cc(C(F)(F)F)c1"
value_reported = 2.28

[[record]]
smiles_data = "Cc1c(Nc2ccccc2C(=O)O)cccc1C(F)(F)F"
value_reported = 3.26

[[record]]
smiles_data = "FC(F)(F)c1ccnc(Nc2ccccc2-c2nnn[nH]2)c1"
value_reported = 2.56

[[record]]
smiles_data = "O=C(O)c1ccccc1Nc1cc(C(F)(F)F)ccc1Br"
value_reported = 2.81


Data origin: ChEMBL document CHEMBL5247646
